Cited source for all entries: patent US20240262793A1

# Tested on: IL-1β
# assay comment: Inhibition of IL-1β in PMA-differentiated, LPS-stimulated THP-1 cells (ELISA of cell lysate)
# Assay type: cell-based
# assay context: Homo sapiens, THP-1, Table 8, PMA 50 ng/mL, LPS 100 ng/mL
observable: IC50 (µM)
The reply should be a number in µM, with the unit left off.

Solved entries:
[
  {
    "compound": "CC(CCCN1C(=O)NC2(CCCC2)C1=O)Nc1ncnc2cc(Cl)ccc12 (stereo not drawn) [Example 72]",
    "readout unit": "µM",
    "IC50": 12.8
  },
  {
    "compound": "CC1(C)NC(=O)N(CCCCCNc2ncnc3cc(Cl)ccc23)C1=O [Example 69]",
    "readout unit": "µM",
    "IC50": 13.7
  },
  {
    "compound": "CC(CCCN1C(=O)NC2(CC2)C1=O)Nc1ncnc2cc(Cl)ccc12 (stereo not drawn) [Example 73]",
    "readout unit": "µM",
    "IC50": 38.1
  },
  {
    "compound": "O=C1NC2(CC2)C(=O)N1CCCCNc1ncnc2cc(F)ccc12 [Example 61]",
    "readout unit": "µM",
    "IC50": 134
  },
  {
    "compound": "O=C1NC2(CC2)C(=O)N1CCCCCNc1ncnc2cc(F)ccc12 [Example 55]",
    "readout unit": "µM",
    "IC50": 63.8
  }
]

Enquiry: Need IC50 of O=C1NC2(CCCC2)C(=O)N1CCCCNc1ncnc2cc(F)ccc12 [Example 59] , thanks.
Return: 80.5

Enquiry: # get_value(readout='IC50', item= O=C1CNC(=O)N1CCCCNc1ncnc2cc(F)ccc12 [Example 56] )
Return: 16.3

Enquiry: # get_value(readout='IC50', item= O=C1CNC(=O)N1CCCCCNc1ncnc2cc(F)ccc12 [Example 50] )
Return: 122

Enquiry: Tell me the measured IC50 of CN1CC(=O)N(CCCCNc2ncnc3cc(F)ccc23)C1=O [Example 58] , please.
Return: 86.5

Enquiry: Name the recorded IC50 for C[C@@H](CCCN1C(=O)CNC1=O)Nc1ncnc2cc(Cl)ccc12 [Example 75] .
Return: 53.8

Enquiry: # query: IC50 of entry O=C1NC2(CCC2)C(=O)N1CCCCCNc1ncnc2cc(F)ccc12 [Example 51]
Return: 3.52
